system.tested: Biotinylated SARS-CoV-2 spike S1 protein (SARS-CoV-2, Wuhan, UniProt P0DTC2, biotin (biotinylated))
method.notes: SPR
assay.metric: binding result

INSERT INTO assay_data (binder, assay_metric, measured) VALUES
  ('mAb08 (B38) (antibody, V domains shown) VH: EVQLVESGGGLVQPGGSLRLSCAASGFIVSSNYMSWVRQAPGKGLEWVSVIYSGGSTYYADSVKGRFTISRHNSKNTLYLQMNSLRAEDTAVYYCAREAYGMDVWGQGTTVTVSS VL: DIVMTQSPSFLSASVGDRVTITCRASQGISSYLAWYQQKPGKAPKLLIYAASTLQSGVPSRFSGSGSGTEFTLTISSLQPEDFATYYCQQLNSYPPYTFGQGTKLEIK', 'binding result', 'binds'),
  ('mAb26 (4A8) (antibody, V domains shown) VH: EVQLVESGAEVKKPGASVKVSCKVSGYTLTELSMHWVRQAPGKGLEWMGGFDPEDGETMYAQKFQGRVTMTEDTSTDTAYMELSSLRSEDTAVYYCATSTAVAGTPDLFDYYYGMDVWGQGTTVTVSS VL: EIVMTQSPLSSPVTLGQPASISCRSSQSLVHSDGNTYLSWLQQRPGQPPRLLIYKISNRFSGVPDRFSGSGAGTDFTLKISRVEAEDVGVYYCTQATQFPYTFGQGTKVDIK', 'binding result', 'binds'),
  ('mAb27 (H014) (antibody, V domains shown) VH: EVQLVQSGAEVKKPGATVKISCKVSGYSFSNYYIHWVKQAPGKSLEWIGYIDPFNGGTSDNLKFKGAATLTADTSTDTAYMELSSLRSEDTAVYYCARSEYDPYYVMDYWGQGTTVTVSS VL: IVLTQSPFQSVSPKEKVTITCRASQSISSNLHWYQQKPDQSPKLLIKYASQSISGIPSRFSGSGSGTDFTLTINSLEAEDFGIYFCQQTNFWPYIFGQGTKLEIL', 'binding result', 'binds');

Values from paper PMC10266124
